System: HCC1954
Assay: -log10 GI50 (growth inhibition 50%) (-log10(M)); higher = more potent growth inhibition
outcome_measure: -log10 GI50

1) O=c1[nH]cc(F)c(=O)[nH]1; 4.79
2) CNC(=O)c1cc(Oc2ccc(NC(=O)Nc3ccc(Cl)c(C(F)(F)F)c3)cc2)ccn1; 4.29
3) Nc1ccn([C@@H]2O[C@H](CO)[C@@H](O)C2(F)F)c(=O)n1; 4.51
4) COc1cc2ncnc(Nc3ccc(F)c(Cl)c3)c2cc1OCCCN1CCOCC1; 5.92
5) C[C@@H](Oc1cc(-n2cnc3ccc(CN4CCN(C)CC4)cc32)sc1C(N)=O)c1ccccc1C(F)(F)F; 8.16

P: CCCCCN(C)CCC(O)(P(=O)(O)O)P(=O)(O)O [Ibandronate sodium]
Q: CCNCCCCNCCCCNCCCCNCCCCNC/C=C/CNCCCCNCCCCNCCCCNCCCCNCC
When their -log10 GI50 values are compared, which is larger, P or Q ? To answer, give the label that identifies your chosen option. Q
